species: Rattus norvegicus; test: Open TG-GATES - Regimen: Daily Repeat; format: toxicity, organism-based, Sprague-Dawley; parameters: regimen Daily Repeat, gender Male, age 6 weeks; details: in vivo, po, 100 mg/kg, […], tissue Plasma, route gavage, dose level Low, time 28 day

MOLECULE	UNIT STRING	PL
Cc1nnc2n1-c1ccc(Cl)cc1C(c1ccccc1Cl)=NC2	mg/dL	142.6
CN/C(=N/CCSCc1nc[nH]c1C)NC#N	mg/dL	150.8
COC(=O)C1=C(C)NC(C)=C(C(=O)OC)C1c1ccccc1[N+](=O)[O-]	mg/dL	135
O=C(OC[C@H]1O[C@@H](OC(=O)c2cc(O)c(O)c(OC(=O)c3cc(O)c(O)c(O)c3)c2)[C@H](OC(=O)c2cc(O)c(O)c(OC(=O)c3cc(O)c(O)c(O)c3)c2)[C@@H](OC(=O)c2cc(O)c(O)c(OC(=O)c3cc(O)c(O)c(O)c3)c2)[C@@H]1OC(=O)c1cc(O)c(O)c(OC(=O)c2cc(O)c(O)c(O)c2)c1)c1cc(O)c(O)c(OC(=O)c2cc(O)c(O)c(O)c2)c1	mg/dL	145.8
CNC(=C[N+](=O)[O-])NCCSCc1ccc(CN(C)C)o1	mg/dL	138.4
CCOc1ccc(NC(C)=O)cc1	mg/dL	148

###

species on record: Rattus norvegicus; test: Open TG-GATES - Regimen: Daily Repeat; assay type: toxicity, organism-based, Sprague-Dawley; parameters: regimen Daily Repeat, gender Male, age 6 weeks; details: in vivo, po, 100 mg/kg, […], tissue Plasma, route gavage, dose level Low, time 7 day

MOLECULE	UNIT STRING	GLC
O=C(OC[C@H]1O[C@@H](OC(=O)c2cc(O)c(O)c(OC(=O)c3cc(O)c(O)c(O)c3)c2)[C@H](OC(=O)c2cc(O)c(O)c(OC(=O)c3cc(O)c(O)c(O)c3)c2)[C@@H](OC(=O)c2cc(O)c(O)c(OC(=O)c3cc(O)c(O)c(O)c3)c2)[C@@H]1OC(=O)c1cc(O)c(O)c(OC(=O)c2cc(O)c(O)c(O)c2)c1)c1cc(O)c(O)c(OC(=O)c2cc(O)c(O)c(O)c2)c1	mg/dL	207.4
COC(=O)C1=C(C)NC(C)=C(C(=O)OC)C1c1ccccc1[N+](=O)[O-]	mg/dL	174.8
CNC(=C[N+](=O)[O-])NCCSCc1ccc(CN(C)C)o1	mg/dL	223.6
CN/C(=N/CCSCc1nc[nH]c1C)NC#N	mg/dL	252.8
Cc1nnc2n1-c1ccc(Cl)cc1C(c1ccccc1Cl)=NC2	mg/dL	192.4
CCOc1ccc(NC(C)=O)cc1	mg/dL	186

###

species on record: Rattus norvegicus; assay: Open TG-GATES - Regimen: Single; type: toxicity, organism-based, Sprague-Dawley; set-up: regimen Single, gender Male, age 6 weeks; settings: in vivo, po, 100 mg/kg, 3 h, tissue Plasma, route gavage, dose level Low
EXPERIMENTAL READOUT: PL (mg/dL)

MOLECULE	VALUE REPORTED
Cc1nnc2n1-c1ccc(Cl)cc1C(c1ccccc1Cl)=NC2	144.4
CNC(=C[N+](=O)[O-])NCCSCc1ccc(CN(C)C)o1	137.8
O=C(OC[C@H]1O[C@@H](OC(=O)c2cc(O)c(O)c(OC(=O)c3cc(O)c(O)c(O)c3)c2)[C@H](OC(=O)c2cc(O)c(O)c(OC(=O)c3cc(O)c(O)c(O)c3)c2)[C@@H](OC(=O)c2cc(O)c(O)c(OC(=O)c3cc(O)c(O)c(O)c3)c2)[C@@H]1OC(=O)c1cc(O)c(O)c(OC(=O)c2cc(O)c(O)c(O)c2)c1)c1cc(O)c(O)c(OC(=O)c2cc(O)c(O)c(O)c2)c1	128.8
CN/C(=N/CCSCc1nc[nH]c1C)NC#N	140.6
COC(=O)C1=C(C)NC(C)=C(C(=O)OC)C1c1ccccc1[N+](=O)[O-]	132
